System: rat lung membrane SMBS
Test: Receptor-binding assessment test of compounds using rat lung membranes ([125I]-iodocyanopindolol ligand binding assay)
Settings: ratio of inhibiting specific binding of [125I]-iodocyanopindolol to rat lung membrane SMBS; test compound 1 μM
assay endpoint: Binding Activity (%) (1 μM)

CCNC(=O)NCCn1c(-c2ccc(N3CCOCC3)nn2)cs/c1=N\c1cccc(F)c1: 83
CNC(=O)NCCn1c(-c2ccc(N3CCOCC3)nn2)cs/c1=N\c1ccccc1Cl: 93
CCNC(=O)NCCn1c(-c2ccc(N3CCOCC3)nn2)cs/c1=N\c1ccc(F)cc1: 82
CCNC(=O)NCCn1c(-c2ccc(N3CCOCC3)nn2)cs/c1=N\c1ccc(Cl)cc1: 88
CNC(=O)NCCn1c(-c2ccc(N3CCOCC3)nn2)cs/c1=N\c1ccccc1F: 75
CNC(=O)NCCn1c(-c2ccc(N3CCOCC3)nn2)cs/c1=N\c1cccc(F)c1: 103
CNC(=O)NCCn1c(-c2ccc(N3CCOCC3)nn2)cs/c1=N\c1cncc(C(F)(F)F)c1: 89

# credit: patent US20110039848A1
